# apparent KD of MS2 coat protein values compiled below
- System: MS2 coat protein
- protocol.details: apparent KD of MS2 coat protein; higher = weaker reporter binding
- condition.details: Eterna round: R107; input ligand: arginine 13.2 mM
readout: apparent KD of MS2 coat protein (µM)

residue.sequence	tested.on	endpoint.result
GGUUACUCUACGGCCGCCACUGUAAUGUAAAGAUACCUGUACAUGACAUGAGGAUCACCCAUGUGCAGGACCGGGUAGUGUAACC [Tryptophan B 19]	MS2 coat protein	0.0507
UUCAAAGGGAACGGUGCUGGUGACAGAGAUACCAGCGCGGUAACGCGCCCUUGGCAGCUCAGAACAUGAGGAUCACCCAUGUAAU [Exclusion Theophylline A GF23]	MS2 coat protein	0.0159
CUCGGUUGAUCCUAGCUGCCGAGAGGUGAUACCAGCAUCGAAAGAUGCCCUUGGCAGCACCAACAUGAGGAUCACCCAUGUAAUA [(MT)''-(M)'-(T')-(Theo)-(Ms2)_Design1/22_5]	MS2 coat protein	0.0302
UCGUGUAUAACGGAUACCAGUGAGAAGGAUACAUGAGGAUCACCCAUGUGAGUUGAUCCACACCCUUGGCAGCUGUAUAUAUCUA [alamullin]	MS2 coat protein	0.103
UGUAUGUGAUCUGAUACCAGCUUUGAUAACCUGAGGAUCACCCUGGUAAAGGCGAAAGCCGGCCCUUGGCAGCAGAUCGCAUACU	MS2 coat protein	0.0473
ACGUAAUGCAGAAGGAGCGUCAACCUCUUACAUGAGGAUCACCCAUGUUACAUGGUUGUAUGACAGGUAGGUCGCUGAAGUACGA [JR_ExcArginiB_Sub001]	MS2 coat protein	0.0319
AAAAUAAAACGUGCAAAAUCCUAAUGUGAAGGAGCGCACGAAAGUGCAGGUAGGUCGCACAUGAGGAUCACCCAUGUAGCACGAA [MAT - Exclusion Arginine A - Mod of Eli - D1]	MS2 coat protein	0.0601
CUCGAGGCCGGUGAUACCAGACACGAAACUAUACAUGAGGAUCACCCAUGUCAAACAACGGUCCCUUGGCAGCAUGGGUGUAUCC [Enzabemage]	MS2 coat protein	0.0269
UAUGCACAUGAGGAUCACCCAUGUAUGGAAGGAGCGGUGAAUAAACCAGGUAGGUCGCCAUGGUGAGGAUCAUCUAUGUAAUCGU [Exclusion - Arginine A (Freestyle 6)]	MS2 coat protein	0.0623
CUACAUGUAGUUAAACCGGUCAACAAUAAUCGAGGACCGGUACGGCCGCCACUCGAUGUGUUAUACACAUGAGGAUCACCCAUGU [Tryptophan A 15]	MS2 coat protein	0.0233
CUAUGGAUAAGAAGGAGCGUCGAAAAUGGGUAAACAUGAGGAUCACCCAUGUAAAGGGAACGACAGGUAGGUCGCUUAUUUAUAG [AstromonsSSArgB#7]	MS2 coat protein	0.107
AGGACGGUCGGAAGGAGCGGUACAUGAGGAUCACCCAUGUACCUCUGGGCAUCCGUAGUGUGCCAGGUAGGUCGCCGAUUGCGGG [Lareerra]	MS2 coat protein	0.0157
GGCCCGGACUUGGAAUGGGUGUUUCCCUCACGAGGACCGGUACGGCCGCCACUCGAAGACAUGAGGAUCACCCAUGUAGUCGACA [Qudirate]	MS2 coat protein	0.0312
UCAUGAGGAUCACCCAUGUGGCGUCUUGAUACCAGACGAGAAGUAGUCCCUUGGCAGCAAAUACAUGAGGAUCACCCAUGUAGGA [cccmullin2]	MS2 coat protein	0.0245
UGCAUGAUCUGAAGGAGCGUGUAUGAUGAUAACAUGAGGAUCACCCAUGUCGAGACGGUAACACAGGUAGGUCGCAGAUCAUGCU [Arg B SS t4]	MS2 coat protein	0.0214

----------
Quick reference: apparent KD of K4 kissing-loop reporter of the listed items.
- System: K4 kissing-loop RNA reporter
- protocol.details: apparent KD of K4 kissing-loop reporter; higher = weaker reporter binding
- condition.details: Eterna round: R107; input ligand: none

residue.sequence	apparent KD of K4 kissing-loop reporter
UGGAGUUGACGAAAAGUCAACUCCUGAGAUACCAGUGACGAAAGUCACCCUUGGCAGCUCACUGGCAGUGAUGUUGCACGAUAAA [KL-SSTheo-A1]	80 nM
AGAGUUAUGCGAGGAUAUGCGGUUAGUACUCAAAGAGUACUAACGCAGAGUGAUGUUCUGUGAAACGCAGAAGGUGCAUAACUCA [Omei KL FMN B SS B v3]	280 nM
GACGGGUUCCUGCUCAAUCCGUCGCAUGAUCGAGGACCGGUACGGCCGCCACUCGAGGCCAUGCCGUACGAGUGAUGUUCGUGCG [Xeon]	403 nM
AAACUUGCAGUGAUGUUGCAAGUAGGUGAUACCAGCAUCGAAAGAUGCCCUUGGCAGCACCAACACUGCAAGUAAGUAUCACCAA [(H1)-(H2)-(T1)-(T2)-(H)'-(T)'_Design1]	128 nM
UGAUACCAGACUGAUACCAGCCAGUGAUGUUGGCUAAAACCAAAAGCUGGCAAAGCCAGCGGCCCUUGGCAGCAGUCUGGUAUCU [TheoBX 1 #SwitchBubble #StaticStem]	806 nM
CGAGUGAUGUUCGUUUAUUACUCUGUUUGACAGGAUAUGCGGAAACGCAGAAGGGUCACCUUUGAGUUAGACGGAGUUAUUUUUU [Ex FMN A 22]	407 nM

----------
- Tested on: K4 kissing-loop RNA reporter;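 also: bound reporter read as fluorescence of individual clusters on recovered sequencing chips by microscopy, with normalized cluster intensities fitted with a binding model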
- protocol.details: apparent KD of K4 kissing-loop reporter; higher = weaker reporter binding
- condition.details: Eterna round: R107; input ligand: none
readout: apparent KD of K4 kissing-loop reporter

residue.sequence	endpoint.result
UCUAACAAAUCGGCCGCCACUGAAAUAACCCAGGAGUGAUGUUCCAUCGUCCUAGACUACUCUUCCAGGACCGGGAUCUGUGUUC [theeternabot_exclusion_KL_Trp_B_25]	529 nM
UGUCAUUGGUCUGAUACCAGUACCCUUGGCAGCCAAGGAGUGAUGUUCCAAGGAUACCAGUACCCUUGGCAGCAGACCGAUGACU [TheoBS 25 #DoubleAptamer #SwitchBubble]	758 nM
AAAUUCUUUUUUUUAUUUAAGUUUUCAGAAGGAGCGUGGUAGUACACAGGUAGGUCGCUGAAUUUUGGGCUAGUGAUGUUAGUUA [whbob_SS_Arginine_A_sa114]	200 nM
UGUCAUUGGUCGGCCGCCACUUCGUGUGGAGUGAUGUUUUGUAGGUUGUGUUGAAAGGUAUGGUGAAGGACCGGGACCGAUGACU [FiskerMod 20 - Jieux - Same State - Tryptophan B]	496 nM
AUUCUUAUAAUAACACUAUAUACAACUGAAGGAGCGACAAUAAAGUCAGGUAGGUCGCAGAAUAAAUGAGUGAUGUUCAUUUUUA [JR_ExcArginiA_Sub011]	129 nM
AAGUGUCAUUAGACACAGACUACAAUACACUAGGAUAUGCUGAUAAGCAGAAGGAGUGAUGUUCCUUUCAAGUAGUCAAUUAAAU [FmnAX 21 Mat Inspired #SwitchBubble #StaticStem #K4Late]	143 nM
UUGUUUGGUUGAGAGGUUGGGCGAGAUGAUACCAGUAGAGAAGAGUACCCUUGGCAGCAUAGGAAAGAUAUAGUGAUGUUGUAUA [SSTheophA.Q]	357 nM
AGUCCGCUCCAAGGAUAUAGUCCGGCUGCGCGUCAGUGAUGUUGAAGAAGUAUCGCGUCUCUAUAGCUAGAAGGUGGCGCAAUUG [theeternabot_sameState_KL_FMN_B_20]	989 nM
UGACUGGAUGGAAGGAGCGCUAAACUCCUAGUGAUGUUAGGGACACGAGGCAAAGCCUCGAAGCAGGUAGGUCGCCAUCUAGUCU [FiskerMod 22 - Jieux - Same State - Arginine B]	174 nM
UACUUUAAUUUAUAACUAUCUUUAUUUUGUCAGGAUAUCGUAUAGUCGAGAAGGGACUCUAUCAAGUGAUGUUUGAUAUAUCGUU [JR_SSFMNA_Sub025]	131 nM
GCCGCAAGGCUAGCAGCAAUAGGCGCUCGCUAGGAUAUCUGGAAACAGAGAAGGAGCUGGAGUGAUGUUUUACCUCCUUGUUAUU	950 nM
UGUGAACAAAAGUAGAGUGGACCACUAUAGCGAGGACCGGUACGGCCGCCACUCGUACAUGUAUUCAGUGAUGUUGAAAUGAGCU [whbob_EX_Tryp_A_t15]	268 nM
AAUGUAUGGCACAUGAGUGAUGUUCAUGUCCGAGGACCGGUACGGCCGCCACUCGGUCCUGGGUUCUUAUUACUAUACAUUAAUG [KL-XTryp-A2 #analogue]	149 nM
AAUGGGUGAUAAGGAUAUCCACCUCACAAACCAAGAGUGAUGUUCGUUGGUCCAUGGACAAUAUGUGGAGAAGGUAUAGUGAUUA [theeternabot_exclusion_KL_FMN_B_48]	1000 nM
UUUGUAUAGGGAAGGAGCGUGAAUGAGAAAGAAUAUAGUGAUGUUAUAUAGAAGAAAGAAUCACAGGUAGGUCGCCCGGAGGAGG [SSArgB.G]	371 nM
AUUUAAUUAACUGAUACCAGACUUUUUGUUUUGUUUAUUACUAGUGAUGUUAGUGUUUCUGUCCCUUGGCAGCAGAAUCUACUUA [JR_ExcTheophyB_Sub019]	191 nM

Source: the supplement of paper PMC9170038
